Target: human recombinant OX2 (hOX2) receptor expressed in CHO cells (Homo sapiens)
Sequence (O43614 whole entry): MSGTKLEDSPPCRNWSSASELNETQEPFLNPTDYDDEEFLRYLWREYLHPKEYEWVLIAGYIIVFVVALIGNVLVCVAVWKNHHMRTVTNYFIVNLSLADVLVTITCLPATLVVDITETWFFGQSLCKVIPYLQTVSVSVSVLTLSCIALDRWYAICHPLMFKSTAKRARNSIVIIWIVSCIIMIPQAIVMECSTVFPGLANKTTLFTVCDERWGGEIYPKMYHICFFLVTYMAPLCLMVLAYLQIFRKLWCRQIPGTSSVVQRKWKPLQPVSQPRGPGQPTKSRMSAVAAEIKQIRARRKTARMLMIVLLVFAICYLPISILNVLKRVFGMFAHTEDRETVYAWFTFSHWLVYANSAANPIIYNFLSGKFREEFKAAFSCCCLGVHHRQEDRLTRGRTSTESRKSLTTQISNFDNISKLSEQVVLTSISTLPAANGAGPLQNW
Experiment: IP-1 accumulation assay (IP-One HTRF) in hOX2-CHO cells
Conditions: 60 min at 37° C., 11 points CRC, response as % of maximal OX-A response
pEC50: −log10 of the molar value.
parameter: pEC50

Guide cases for pEC50, answers given:
Cc1ccnn1C(CNS(C)(=O)=O)CO[C@H]1CC[C@@H](c2ccccc2)CC1 (single isomer, unassigned; isomer 2) [Example 2ae]: < 5.00
Cc1cc(-c2cccnc2)cn(C(CNS(C)(=O)=O)CO[C@H]2CC[C@@H](c3ccccc3)CC2)c1=O (stereo partly shown) [Example 6a]: 5.00 to 6.00

Form: Entry = CN(C)S(=O)(=O)NCC(CO[C@H]1CC[C@@H](c2cccc(F)c2)CC1)c1cccc2c1nnn2C (stereo partly shown) [Example 5h] | System = human recombinant OX2 (hOX2) receptor expressed in CHO cells (Homo sapiens) | pEC50 = ____ 5.00 to 6.00
